test system: COLO 205 colon; assay: NCI tumour cell line growth inhibition, 48 h
PROPERTY_LABEL: TGI (µM)

MOLECULE: S=C=NCCc1ccccc1
STUDY_TARGET: COLO 205 colon
RELATION_OPERATOR: =
NUMERIC_VALUE: 3.07

MOLECULE: CCOC(=O)c1cnn2c3ccccc3n(S(=O)(=O)c3ccc(OC)cc3)c12
STUDY_TARGET: COLO 205 colon
RELATION_OPERATOR: =
NUMERIC_VALUE: 1.08

MOLECULE: COc1cc2c(cc1C1=NC(C)(C)CO1)OCO2
STUDY_TARGET: COLO 205 colon
RELATION_OPERATOR: >
NUMERIC_VALUE: 100

MOLECULE: Nc1ccc(-c2nc3ccccc3s2)cc1C#Cc1ccccc1
STUDY_TARGET: COLO 205 colon
RELATION_OPERATOR: =
NUMERIC_VALUE: 31

MOLECULE: CC1(C)CCCCCC(C)(CCCO)C1=O (stereo unspecified)
STUDY_TARGET: COLO 205 colon
RELATION_OPERATOR: >
NUMERIC_VALUE: 100

MOLECULE: Cc1cc(O)c(/C=N/C(=S)Nc2ccccc2)c(=O)o1
STUDY_TARGET: COLO 205 colon
RELATION_OPERATOR: >
NUMERIC_VALUE: 100

* * *

tested on: ACHN renal; assay: NCI tumour cell line growth inhibition, 48 h
PROPERTY_LABEL: TGI

COMPOUND: C#CCN(C(=O)C(F)(F)F)c1ccc(C(=O)c2ccc(N(CC#C)C(=O)C(F)(F)F)cc2)cc1
STUDY_TARGET: ACHN renal
RESULT: > 100 µM

COMPOUND: CNC(=O)OC(COC)CN1CCN(c2ccccc2C)CC1 (configuration not stated)
STUDY_TARGET: ACHN renal
RESULT: > 10 µM

COMPOUND: CCOC(=O)Cc1cnc(NC(NC(=O)CC)(C(F)(F)F)C(F)(F)F)s1
STUDY_TARGET: ACHN renal
RESULT: > 100 µM

COMPOUND: CCOC(=O)CN1CC(C2=C(O)CN(CC(=O)OCC)C2=O)=CC1=O
STUDY_TARGET: ACHN renal
RESULT: > 100 µM

COMPOUND: COC1OC(C)C2OC(C)(C)OC2C1OC(C)=O (configuration not stated)
STUDY_TARGET: ACHN renal
RESULT: > 100 µM

COMPOUND: CCN(CC)CCn1[nH]c2c3ccc(=O)cc3sc3c(NCCN)ccc1c32
STUDY_TARGET: ACHN renal
RESULT: 2.54 µM

COMPOUND: S=C=NCCc1ccccc1
STUDY_TARGET: ACHN renal
RESULT: 3 µM

COMPOUND: O=C1CCCCC/C1=C\c1ccccc1
STUDY_TARGET: ACHN renal
RESULT: > 100 µM

COMPOUND: COC(=O)/C=C(\S/C=C(/c1ccccc1)N1CCn2c(C(=O)c3ccccc3)c(C(=O)OC)c(C(=O)OC)c21)C(=O)OC
STUDY_TARGET: ACHN renal
RESULT: > 10 µM

COMPOUND: Nc1nc(=O)n([C@@H]2CS[C@H](CO)O2)cc1F
STUDY_TARGET: ACHN renal
RESULT: > 100 µM

COMPOUND: CC(=O)C(=[N+]=[N-])C(=O)N(C)CCC#N
STUDY_TARGET: ACHN renal
RESULT: > 10 µM

COMPOUND: COc1ccc2[nH]c3c(C)cc([N+](=O)[O-])c(C)c3c2c1
STUDY_TARGET: ACHN renal
RESULT: 63.1 µM
